Reference source for all entries: PubChem BioAssay (Tox21)

- Procedure Summary: qHTS assay to identify small molecule antagonists of the thyroid receptor (TR) signaling pathway (AID 743065); note: nearly all actives have a fitted effect of over 55% in size
- Experimental Parameters: GH3.TRE-Luc, T3-stimulated luciferase inhibition, 23.5 h; series mostly up to 70.3 µM
Records with an inconclusive call do not appear. Active and inactive are the calls of the source. Calls come from the whole dose curve; as a rule, active = well fitted inhibition curve with a large enough effect in the repeat runs; inconclusive = weak or mixed curves; inactive = no such curve, though single readings can be large or run the other way.
A correct response names exactly one class from active, inactive

Task: Query: recorded result category for Cn1cc(C(=O)[C@@H]2CCc3nc[nH]c3C2)c2ccccc21 in this test
Result: inactive

Task: Query: recorded result category for Oc1ccc(C2(c3ccc(O)cc3)CC3CC2C2CCCC32)cc1 (stereo not drawn) in this test
Result: active

Task: Query: recorded result category for CC[C@H]1O[C@]2(CC[C@@H]1C)C[C@@H]1C[C@@H](C/C=C(\C)C[C@@H](C)/C=C/C=C3\CO[C@@H]4[C@H](O)C(C)=C[C@@H](C(=O)O1)[C@]34O)O2 in this test
Result: active

Task: Query: recorded result category for C/C=C1/C(=O)C[C@H]2[C@@H]3CCC4=CC(=O)CC[C@]4(C)[C@H]3CC[C@]12C in this test
Result: active

Task: Query: recorded result category for CN(C)[C@@H]1C(=O)C(C(N)=O)=C(O)[C@@]2(O)C(=O)C3=C(O)c4c(O)ccc(Cl)c4[C@@H](O)[C@H]3C[C@@H]12 in this test
Result: inactive

Task: Query: recorded result category for CCCCCCCCOc1ccccc1C(=O)Nc1ccc(C(=O)OCC[N+](C)(CC)CC)cc1 in this test
Result: active

Task: Query: recorded result category for CCCCCCCCCCCC(=O)NCCCN(C)C in this test
Result: active

Task: Query: recorded result category for O=C(Nc1cccc([N+](=O)[O-])c1)c1cc2ccccc2cc1O in this test
Result: active

Task: Query: recorded result category for CC(C)n1nc(-c2cc3cc(O)ccc3[nH]2)c2c(N)ncnc21 in this test
Result: active

Task: Query: recorded result category for CCCCCCCCCCCCCCCCCC[N+](C)(C)Cc1ccccc1 in this test
Result: active

Task: Query: recorded result category for NC(=O)NS(=O)(=O)c1ccc(N)cc1 in this test
Result: inactive

Task: Query: recorded result category for CN(C)c1ccc(C2(c3ccc(N(C)C)cc3)OC(=O)c3cc(N(C)C)ccc32)cc1 in this test
Result: inactive

Task: Query: recorded result category for COc1c(C)c2c(c(O)c1C/C=C(\C)CCC(=O)O)C(=O)OC2 in this test
Result: active

Task: Query: recorded result category for Oc1ccc(N=Nc2ccccc2)cc1 in this test
Result: active

Task: Query: recorded result category for CCC(C)(C)C1CCCCC1OC(C)=O (stereo not drawn) in this test
Result: inactive

Task: Query: recorded result category for O=C(O)c1c(Cl)cccc1Cl in this test
Result: inactive

Task: Query: recorded result category for O=C1c2ccccc2Cc2ccccc21 in this test
Result: inactive

Task: Query: recorded result category for CCOC(=O)c1nc(C(Cl)(Cl)Cl)n(-c2ccc(Cl)cc2Cl)n1 in this test
Result: active

Task: Query: recorded result category for O=c1c(-c2ccccc2)c1-c1ccccc1 in this test
Result: active

Task: Query: recorded result category for CC(=O)SC[C@@H](Cc1ccccc1)C(=O)NCC(=O)OCc1ccccc1 in this test
Result: inactive

Task: Query: recorded result category for CSc1cnc(C)cn1 in this test
Result: inactive

Task: Query: recorded result category for OC1(c2ccc(Cl)c(C(F)(F)F)c2)CCN(CCCC(c2ccc(F)cc2)c2ccc(F)cc2)CC1 in this test
Result: active

Task: Query: recorded result category for Cc1cccc(S(=O)(=O)O)c1C in this test
Result: inactive
